- system.name: P2X7 receptor (hP2X7) (Homo sapiens (Human), UniProt Q99572)
- experiment.description: Screen Quest Fluo-8 No Wash Calcium Assay (Bz-ATP-induced Ca2+ influx, FLIPR TETRA)
- Type: cell-based
- condition.details: HEK-293 cells stably transfected with P2X7 receptor, Fluo-8 calcium, Low Divalent Cation Assay Buffer
endpoint.name: IC50 (nM)
The response must be a number in nM with no trailing unit.

Cc1ncsc1C(CNC(=O)c1cccc2ncccc12)N1CCC(F)(F)CC1 (stereo not drawn): 158

Input line: Item Cc1cccc(Cl)c1C(=O)NCC(c1scnc1C)N1CCOC(c2ccc(F)cc2F)C1 (stereo not drawn) [Compound 101] with P2X7 receptor (hP2X7) (Homo sapiens (Human), UniProt Q99572) - IC50?
Output line: 114

Input line: Any idea what IC50 came out for Cc1ncsc1C(CNC(=O)c1c(F)cccc1Cl)N1CCc2ccccc2C1 (stereo not drawn) on P2X7 receptor (hP2X7) (Homo sapiens (Human), UniProt Q99572)?
Output line: 130

Input line: // map Cc1ncsc1C(CNC(=O)c1cc(-c2ncc(F)cn2)ccc1Cl)N1CCCC(F)(F)C1 (stereo not drawn) to recorded IC50 (system: P2X7 receptor (hP2X7) (Homo sapiens (Human), UniProt Q99572))
Output line: 22

Input line: Could you share what IC50 was measured for Cc1cccc(C)c1C(=O)NCC(c1scnc1C)N1CCC(F)(F)CC1 (stereo not drawn) , tested on P2X7 receptor (hP2X7) (Homo sapiens (Human), UniProt Q99572)?
Output line: 55

Input line: // fetch P2X7 receptor (hP2X7) (Homo sapiens (Human), UniProt Q99572) IC50 for O=C(NCC(c1cnc(C2CCC2)s1)N1CCC(F)(F)CC1)c1cc(-c2ncc(F)cn2)ccc1Cl (stereo not drawn)
Output line: 1020

Input line: Form entry - test system: P2X7 receptor (hP2X7) (Homo sapiens (Human), UniProt Q99572); read-out: IC50; compound: O=C(NCC(c1cnc(C2CCC(F)(F)CC2)s1)N1CCC(F)(F)CC1)c1c(F)cccc1Cl (stereo not drawn)
Output line: 429

Input line: Under P2X7 receptor (hP2X7) (Homo sapiens (Human), UniProt Q99572): IC50 value of Cc1cccc(Cl)c1C(=O)NCC(c1scnc1C)N1CCOC(c2ccc(F)cc2F)C1 (stereo not drawn) [Compound 100] ?
Output line: 68

Input line: Give recorded IC50 with P2X7 receptor (hP2X7) (Homo sapiens (Human), UniProt Q99572) for the following compound: O=C(NCC(c1cnc(C2CCC(F)(F)CC2)s1)N1CCOCC1)c1c(F)cccc1Cl (stereo not drawn)
Output line: 60

Input line: Which IC50 is reported with P2X7 receptor (hP2X7) (Homo sapiens (Human), UniProt Q99572) for this entry: Cc1ncc(C(CNC(=O)c2c(F)cccc2Cl)N2CCC(F)(F)CC2)s1 (stereo not drawn) ?
Output line: 87

Input line: Could you share what IC50 was measured for Nc1ccc(Cl)c(C(=O)NCC(c2cncs2)N2CCOCC2)c1 (stereo not drawn) , tested on P2X7 receptor (hP2X7) (Homo sapiens (Human), UniProt Q99572)?
Output line: 143

Input line: Notebook entry, P2X7 receptor (hP2X7) (Homo sapiens (Human), UniProt Q99572) assay: IC50 of O=C(NCC(c1cnc(C2CCC2)s1)N1CCC(F)(F)CC1)c1cc(-c2ncc(F)cn2)ccc1F (stereo not drawn) = ?
Output line: 1240

Input line: Identify the measured IC50 of Cc1ncsc1C(CNC(=O)c1c(F)cccc1Cl)N1CCOC(c2ccccc2C(F)(F)F)C1 (stereo not drawn) for P2X7 receptor (hP2X7) (Homo sapiens (Human), UniProt Q99572).
Output line: 412

Input line: What measured IC50 is associated with Cc1ncsc1C(CNC(=O)c1c(F)cccc1Cl)N1CCC(F)(F)CC1C (stereo not drawn) on P2X7 receptor (hP2X7) (Homo sapiens (Human), UniProt Q99572)?
Output line: 1870

* * *

- system.name: P2X7 receptor (hP2X7) (Homo sapiens (Human))
- experiment.description: Screen Quest Fluo-8 No Wash Calcium Assay (Bz-ATP-induced Ca2+ influx, FLIPR TETRA)
- Type: cell-based
- condition.details: HEK-293 cells stably transfected with P2X7 receptor, Fluo-8 calcium, Low Divalent Cation Assay Buffer
Recorded IC50 for the following compounds
All answers are understood in nM, so give the number only.

Nc1ccc(Cl)c(C(=O)NCC(c2cncs2)N2CCc3ccccc3C2)c1 (stereo not drawn): 136
Cc1cccc(C)c1C(=O)NCC(c1cnco1)N1CCC(F)(F)CC1 (stereo not drawn): 18
O=C(NCC(c1nccs1)N1CCc2ccccc2C1)c1c(F)cccc1Cl (stereo not drawn): 1020
Cc1ncsc1C(CN(C)C(=O)c1cc(-c2ncc(F)cn2)ccc1Cl)N1CCC(F)(F)CC1 (stereo not drawn): 1760

Input line: Find the measured IC50: item O=C(NCC(c1cscn1)N1CCc2ccccc2C1)c1c(F)cccc1Cl (stereo not drawn) , target or system P2X7 receptor (hP2X7) (Homo sapiens (Human)).
Output line: 800

Input line: API: value(readout= IC50, system= P2X7 receptor (hP2X7) (Homo sapiens (Human)), query= O=C(NCC(c1cncs1)N1CCC(F)(F)CC1)c1c(F)cccc1Cl (stereo not drawn) )
Output line: 28

Input line: # returns recorded IC50 (system: P2X7 receptor (hP2X7) (Homo sapiens (Human))) for O=C(NCC(c1cnco1)N1CCOCC1)c1c(F)cccc1Cl (stereo not drawn)
Output line: 677

Input line: Query the reported IC50 for P2X7 receptor (hP2X7) (Homo sapiens (Human)); item: Cc1ncsc1C(CNC(=O)c1cc(-c2ncc(F)cn2)ccc1Cl)N1CCC(Oc2ccccc2)CC1 (stereo not drawn)
Output line: 238

Input line: Reported IC50 for P2X7 receptor (hP2X7) (Homo sapiens (Human)), given O=C(NCC(c1cnc(C2CCC2)s1)N1CCC(F)(F)CC1)c1cccc2ncccc12 (stereo not drawn) ?
Output line: 292

* * *

- system.name: UniProt:Q99572
- experiment.description: human P2X7 channel assay by automated patch-clamp (QPatch 16X)
- Type: cell-based
- condition.details: HEK-293 cells expressing P2X7 channels, 100 microM BzATP, held at -80 mV, read-out: hP2X7 (IC50; nM)
Binning rule for recorded IC50: range A = under 60 nM, range B = from 60 nM up to 70 nM, range C = 70 nM and over

Solved cases below.
Cc1ncc(C(CNC(=O)c2cc(-c3ncc(F)cn3)ccc2Cl)N2CCC(F)(F)CC2)s1 (single isomer, unassigned; (+)) [Compound 127]: range B
O=C(NCC(c1scnc1C(F)(F)F)N1CCC(F)(F)CC1)c1c(F)cccc1Cl (centres unmarked): range C
Cc1ncsc1C(CNC(=O)c1cc(-c2ncc(F)cn2)ccc1Cl)N1CCCC(F)(F)C1 (centres unmarked): range C
Cc1ncc(C(CNC(=O)c2c(C)cccc2Cl)N2CCC(F)(F)CC2)s1 (centres unmarked): range B
O=C(NCC(c1cnc(C2CC2)s1)N1CCC(F)(F)CC1)c1c(F)cccc1Cl (centres unmarked): range A

Input line: Which IC50 band matches Cc1ncsc1C(CNC(=O)c1c(F)cccc1Cl)N1CCc2ccccc2C1 (centres unmarked) ?
Output line: range A

Input line: Which bin should I file Cc1cccc(C)c1C(=O)NCC(c1cncs1)N1CCC(F)(F)CC1 (centres unmarked) under?
Output line: range A

* * *

- system.name: P2X7 receptor (Homo sapiens (Human), UniProt Q99572)
- Sequence (Q99572 whole entry): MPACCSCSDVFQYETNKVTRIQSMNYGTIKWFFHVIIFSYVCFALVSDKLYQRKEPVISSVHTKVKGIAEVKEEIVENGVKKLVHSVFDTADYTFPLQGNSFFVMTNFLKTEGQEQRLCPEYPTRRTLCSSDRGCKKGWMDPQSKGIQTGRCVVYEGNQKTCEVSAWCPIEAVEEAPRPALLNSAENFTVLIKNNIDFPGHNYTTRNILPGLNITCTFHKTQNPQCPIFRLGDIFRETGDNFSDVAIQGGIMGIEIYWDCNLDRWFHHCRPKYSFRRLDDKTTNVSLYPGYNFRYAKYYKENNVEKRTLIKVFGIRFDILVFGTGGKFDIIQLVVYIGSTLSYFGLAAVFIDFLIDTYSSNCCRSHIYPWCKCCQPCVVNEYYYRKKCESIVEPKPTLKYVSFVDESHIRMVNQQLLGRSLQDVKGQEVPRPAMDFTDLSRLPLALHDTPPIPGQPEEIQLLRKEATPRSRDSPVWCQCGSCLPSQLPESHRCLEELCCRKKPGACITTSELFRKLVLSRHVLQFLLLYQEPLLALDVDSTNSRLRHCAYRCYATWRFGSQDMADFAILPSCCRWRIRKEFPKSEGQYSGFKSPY
- experiment.description: YO-PRO-1 Uptake Assay (large pore form, Bz-ATP stimulated)
- Assay type: cell-based
- condition.details: HEK-293 cells stably transfected with P2X7 receptor; Bz-ATP EC80 (30 μM); 5 μM YO-PRO-1
endpoint.name: IC50 (nM)
Note: unit nM is implicit; provide only the numeric part.

Examples from the recorded data:
O=C(NCC(c1cnc(C(F)(F)F)s1)N1CCC(F)(F)CC1)c1c(F)cccc1Cl (centres unmarked): 16
Cc1ncsc1C(CNC(=O)c1cc(-c2cnccn2)ccc1Cl)N1CCC(F)(F)CC1 (centres unmarked): 60
O=C(NCC(c1cnc(C2CCC(F)(F)CC2)s1)N1CCOCC1)c1c(F)cccc1Cl (centres unmarked): 41
CCc1ncc(C(CNC(=O)c2c(F)cccc2Cl)N2CCC(F)(F)CC2)s1 (centres unmarked): 48
Cc1ncc(C(CNC(=O)c2c(F)cccc2Cl)N2CCC(OCc3ccccc3)CC2)s1 (centres unmarked): 1110

Input line: Which measured IC50 belongs to Cc1ncoc1C(CNC(=O)c1cc(-c2ncc(F)cn2)ccc1Cl)N1CCC(F)(F)CC1 (centres unmarked) , tested on P2X7 receptor (Homo sapiens (Human), UniProt Q99572)?
Output line: 71

Input line: Notebook: pull reported IC50 for P2X7 receptor (Homo sapiens (Human), UniProt Q99572), entry O=C(NCC(c1cncs1)N1CCOCC1)c1c(F)cccc1Cl (centres unmarked)
Output line: 57

Input line: P2X7 receptor (Homo sapiens (Human), UniProt Q99572) / IC50 / CCCc1ncc(C(CNC(=O)c2cccc3ncccc23)N2CCC(F)(F)CC2)s1 (centres unmarked) : value?
Output line: 77

Input line: Lab note: need IC50 for O=C(NCC(c1cnco1)N1CCC(F)(F)CC1)c1c(F)cccc1Cl (centres unmarked) on P2X7 receptor (Homo sapiens (Human), UniProt Q99572), anyone have it?
Output line: 225

Input line: Provide the documented IC50 with P2X7 receptor (Homo sapiens (Human), UniProt Q99572) as the system for Cc1cccc(C)c1C(=O)NCC(c1cncs1)N1CCC(OCc2ccccc2)CC1 (centres unmarked)
Output line: 40
